# tested_on: Serine/threonine-protein kinase ULK1 (Homo sapiens)
# Sequence (O75385 whole entry): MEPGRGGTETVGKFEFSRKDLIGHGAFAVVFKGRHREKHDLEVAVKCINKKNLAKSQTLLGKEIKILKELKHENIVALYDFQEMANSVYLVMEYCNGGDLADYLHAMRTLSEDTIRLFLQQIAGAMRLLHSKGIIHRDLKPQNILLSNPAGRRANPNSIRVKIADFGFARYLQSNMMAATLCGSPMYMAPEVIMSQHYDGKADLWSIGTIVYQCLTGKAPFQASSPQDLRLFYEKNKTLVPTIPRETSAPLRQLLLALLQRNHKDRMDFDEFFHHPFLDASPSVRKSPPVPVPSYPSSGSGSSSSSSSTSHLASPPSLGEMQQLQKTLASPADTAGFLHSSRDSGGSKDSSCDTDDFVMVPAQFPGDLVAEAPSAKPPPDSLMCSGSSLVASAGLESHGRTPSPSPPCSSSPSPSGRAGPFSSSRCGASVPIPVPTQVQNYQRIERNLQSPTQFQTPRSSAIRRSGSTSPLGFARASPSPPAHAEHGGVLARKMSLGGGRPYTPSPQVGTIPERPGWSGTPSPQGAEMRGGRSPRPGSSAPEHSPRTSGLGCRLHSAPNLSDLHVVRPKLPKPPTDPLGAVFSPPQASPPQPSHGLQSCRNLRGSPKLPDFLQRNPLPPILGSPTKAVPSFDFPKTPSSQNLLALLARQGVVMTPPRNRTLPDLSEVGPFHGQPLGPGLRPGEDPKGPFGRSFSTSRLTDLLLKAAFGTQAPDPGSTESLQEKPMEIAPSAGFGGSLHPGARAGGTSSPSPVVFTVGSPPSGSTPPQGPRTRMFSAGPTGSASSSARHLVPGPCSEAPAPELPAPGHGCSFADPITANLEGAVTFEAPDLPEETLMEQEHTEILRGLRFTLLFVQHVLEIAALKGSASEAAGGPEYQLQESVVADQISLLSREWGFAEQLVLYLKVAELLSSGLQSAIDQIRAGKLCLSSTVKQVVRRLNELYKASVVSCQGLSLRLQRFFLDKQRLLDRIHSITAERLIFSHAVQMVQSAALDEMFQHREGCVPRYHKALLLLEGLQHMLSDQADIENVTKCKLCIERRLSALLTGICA
Calls of active or inactive are those of the source.
Lab note: assign the record to one of active, inactive

Reference set, count: 2
**Query** Outcome? `C=CC(=O)N1CCC[C@H](n2c(=O)n(-c3ccc(Oc4ccccc4)cc3)c3c(N)ncnc32)C1`
**Result** inactive

**Query** What classification did `Cc1nc2cc(-c3nn(C(C)C)c4ncnc(N)c34)ccc2o1` end up with in this test?
**Result** inactive

***
**Query** What call does the record list for `CO[C@H]1C[C@@H]2CC[C@@H](C)[C@@](O)(O2)C(=O)C(=O)N2CCCC[C@H]2C(=O)O[C@H]([C@H](C)C[C@@H]2CC[C@@H](OC(=O)C(C)(CO)CO)[C@H](OC)C2)CC(=O)[C@H](C)/C=C(\C)[C@@H](O)[C@@H](OC)C(=O)[C@H](C)C[C@H](C)/C=C/C=C/C=C/1C` ?
**Result** inactive

**Query** Fill in: this test's call for `CN(C[C@@H]1COCCO1)S(=O)(=O)Nc1ccc2ccc3ncc(-c4cnn(C)c4)cc3c(=O)c2c1` is ___
**Result** inactive

**Query** How did this test come out for `CNC(=O)c1cccc2cc(Oc3ccnc4cc(OCC5(N)CC5)c(OC)cc34)ccc12` ?
**Result** inactive

**Query** Dear colleague, could you share the recorded outcome for `CCS(=O)(=O)c1cccc(-c2cc(C(=O)NC3CCN(C)CC3)c(C)c3[nH]c4ncc(C)cc4c23)c1` when you have a moment?
**Result** inactive

**Query** # outcome recorded in this test, key = O=C1NC(=O)[C@@H](c2cn3c4c(cccc24)CCC3)[C@@H]1c1c[nH]c2ccccc12 [TIVANTINIB]
**Result** inactive

**Query** # lookup: test call for `CC(=O)NCC(=O)N1[C@@H]2CC[C@H]1c1ccc(Nc3ncc(C(F)(F)F)c(NC4CCC4)n3)cc12`
**Result** active

**Query** I would be grateful if you could indicate the recorded call for `Cc1cc(C(=O)NOCCO)c(Nc2ccc(I)cc2F)n(C)c1=O` .
**Result** inactive

**Query** # fetch the recorded call for `C[C@@H](Oc1cc(C(=O)Nc2ccc(C(=O)N3CCN(C)CC3)cc2)nnc1N)c1c(Cl)ccc(F)c1Cl` here
**Result** inactive

###

# tested_on: Serine/threonine-protein kinase ICK (Homo sapiens, UniProt Q9UPZ9)
# Sequence (Q9UPZ9 whole entry): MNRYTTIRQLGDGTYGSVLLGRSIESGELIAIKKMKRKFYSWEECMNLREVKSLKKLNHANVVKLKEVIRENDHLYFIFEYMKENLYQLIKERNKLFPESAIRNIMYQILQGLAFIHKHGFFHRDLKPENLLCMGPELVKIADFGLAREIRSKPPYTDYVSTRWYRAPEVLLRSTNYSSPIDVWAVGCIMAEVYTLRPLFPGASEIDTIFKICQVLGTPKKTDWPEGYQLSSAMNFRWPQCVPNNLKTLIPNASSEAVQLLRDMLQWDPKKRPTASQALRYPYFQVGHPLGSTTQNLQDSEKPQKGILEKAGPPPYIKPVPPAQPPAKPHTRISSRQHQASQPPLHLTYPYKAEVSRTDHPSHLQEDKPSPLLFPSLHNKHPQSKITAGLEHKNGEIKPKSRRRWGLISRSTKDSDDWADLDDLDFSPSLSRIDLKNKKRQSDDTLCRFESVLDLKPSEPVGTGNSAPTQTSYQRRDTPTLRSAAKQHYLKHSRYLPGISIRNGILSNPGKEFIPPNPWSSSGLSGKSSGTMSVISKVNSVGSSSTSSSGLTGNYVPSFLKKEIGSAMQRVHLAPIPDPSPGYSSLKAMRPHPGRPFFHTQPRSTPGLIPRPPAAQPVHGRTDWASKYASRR
Where a name gives a salt, the structure may show the parent alone. Calls of active or inactive are those of the source.
measured_property: Kd

Consider the reported Kd for these molecules:
**Query** Param readout = Kd; param system = Serine/threonine-protein kinase ICK (Homo sapiens, UniProt Q9UPZ9); param query = `CCn1cc(-c2ccnc3[nH]c(-c4cccc(CN(C)C)c4)cc23)c(-c2ccc(NC(=O)N(C)C)cc2)n1` ; response: value; note: in the data inactive means no Kd found up to 30 µM
**Result** > 30 µM (inactive)

**Query** Record `N#CC1(c2ccc(NC(=O)c3cccnc3NCc3ccncc3)cc2)CCCC1` : what is its Kd with Serine/threonine-protein kinase ICK (Homo sapiens, UniProt Q9UPZ9)?
**Result** > 30 µM (inactive)

**Query** Missing value: Kd, Serine/threonine-protein kinase ICK (Homo sapiens, UniProt Q9UPZ9), entry `CO[C@H]1C[C@@H]2CC[C@@H](C)[C@@](O)(O2)C(=O)C(=O)N2CCCC[C@H]2C(=O)O[C@H]([C@H](C)C[C@@H]2CC[C@@H](OP(C)(C)=O)[C@H](OC)C2)CC(=O)[C@H](C)/C=C(\C)[C@@H](O)[C@@H](OC)C(=O)[C@H](C)C[C@H](C)/C=C/C=C/C=C/1C` . Fill in?
**Result** > 30 µM (inactive)

---
**Query** Request: Kd, test system Serine/threonine-protein kinase ICK (Homo sapiens, UniProt Q9UPZ9), entry `Cc1csc(-c2nnc(Nc3ccc(Oc4ncccc4-c4ccnc(N)n4)cc3)c3ccccc23)c1`; note: in the data inactive means no Kd found up to 30 µM
**Result** > 30 µM (inactive)

**Query** Write down the reported Kd of O=c1[nH]ccc2cc(OC3CCNCC3)ccc12 [SAR-407899 FREE BASE] , test system: Serine/threonine-protein kinase ICK (Homo sapiens, UniProt Q9UPZ9). Note: in the data inactive means no Kd found up to 30 µM.
**Result** > 30 µM (inactive)

**Query** What Kd appears in the records for this molecule with Serine/threonine-protein kinase ICK (Homo sapiens, UniProt Q9UPZ9)? O=C1NC(=O)[C@@H](c2cn3c4c(cccc24)CCC3)[C@@H]1c1c[nH]c2ccccc12 [TIVANTINIB]
**Result** > 30 µM (inactive)

**Query** Record `Cc1cnc(NC(=O)Nc2cc(Br)c(C)cc2OC[C@@H]2CNCCO2)cn1` : what is its Kd with Serine/threonine-protein kinase ICK (Homo sapiens, UniProt Q9UPZ9)?
**Result** > 30 µM (inactive)

**Query** Value wanted: Kd (Serine/threonine-protein kinase ICK (Homo sapiens, UniProt Q9UPZ9)) of entry `Cn1cc(-c2cnn3c(N)c(Br)c([C@@H]4CCCNC4)nc23)cn1`
**Result** > 30 µM (inactive)

**Query** Return Kd measured with Serine/threonine-protein kinase ICK (Homo sapiens, UniProt Q9UPZ9) given this molecule: `CC(=O)NCC(=O)N1[C@@H]2CC[C@H]1c1ccc(Nc3ncc(C(F)(F)F)c(NC4CCC4)n3)cc12`
**Result** > 30 µM (inactive)

**Query** # value lookup — system Serine/threonine-protein kinase ICK (Homo sapiens, UniProt Q9UPZ9), readout Kd, item CCS(=O)(=O)N1CCN(c2ccc(Nc3ncc(C(N)=O)c(NC4CC4)n3)cc2)CC1 [Cerdulatinib Hydrochloride]; note: in the data inactive means no Kd found up to 30 µM
**Result** > 30 µM (inactive)

###

# tested_on: Interleukin-1 receptor-associated kinase 1 (Homo sapiens, UniProt P51617)
# Sequence (P51617 whole entry): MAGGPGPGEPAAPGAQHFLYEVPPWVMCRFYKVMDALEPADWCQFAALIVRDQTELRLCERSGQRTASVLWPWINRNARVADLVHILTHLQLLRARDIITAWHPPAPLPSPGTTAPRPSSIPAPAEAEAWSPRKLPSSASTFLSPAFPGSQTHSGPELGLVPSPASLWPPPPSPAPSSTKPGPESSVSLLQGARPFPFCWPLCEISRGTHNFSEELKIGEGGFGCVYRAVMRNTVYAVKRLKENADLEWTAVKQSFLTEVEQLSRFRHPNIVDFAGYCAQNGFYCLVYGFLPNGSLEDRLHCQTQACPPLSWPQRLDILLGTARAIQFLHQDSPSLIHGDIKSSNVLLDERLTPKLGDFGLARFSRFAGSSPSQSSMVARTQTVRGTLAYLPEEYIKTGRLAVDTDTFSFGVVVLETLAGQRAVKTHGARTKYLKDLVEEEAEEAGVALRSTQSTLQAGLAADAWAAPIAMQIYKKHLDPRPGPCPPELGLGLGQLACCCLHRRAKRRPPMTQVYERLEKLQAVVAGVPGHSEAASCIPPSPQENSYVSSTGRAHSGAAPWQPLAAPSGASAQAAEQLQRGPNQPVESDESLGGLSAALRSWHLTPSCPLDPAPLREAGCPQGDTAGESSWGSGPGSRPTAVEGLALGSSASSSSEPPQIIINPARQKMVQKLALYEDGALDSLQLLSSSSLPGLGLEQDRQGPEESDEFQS
Active and inactive are the calls of the source.
The reply should name one outcome from active, inactive

**Query** What did the test return for O=C1NC(=O)[C@@H](c2cn3c4c(cccc24)CCC3)[C@@H]1c1c[nH]c2ccccc12 [TIVANTINIB] ?
**Result** inactive

New cases:
**Query** Outcome? `FC(F)(F)c1ccc(/C=C/c2nc(COc3ccc(CCCCn4ccnn4)cc3)co2)cc1`
**Result** inactive

**Query** Outcome logged for `CCn1cc(-c2ccnc3[nH]c(-c4cccc(CN(C)C)c4)cc23)c(-c2ccc(NC(=O)N(C)C)cc2)n1` in this assay:
**Result** inactive

**Query** Recorded call for `Cn1cnc2c(F)c(Nc3ccc(Br)cc3F)c(C(=O)NOCCO)cc21` ?
**Result** inactive

**Query** Recorded call for `CCn1c(C(=O)N(C2CC2)C2CC2)cc2c3c(ncn3C)c(Nc3cc(C)n(C)n3)nc21` ?
**Result** inactive

**Query** Call for entry `Cc1csc(-c2nnc(Nc3ccc(Oc4ncccc4-c4ccnc(N)n4)cc3)c3ccccc23)c1` :
**Result** inactive

###

Entries below carry reported Kd on Aurora kinase A (Homo sapiens).
Sequence (O14965 whole entry): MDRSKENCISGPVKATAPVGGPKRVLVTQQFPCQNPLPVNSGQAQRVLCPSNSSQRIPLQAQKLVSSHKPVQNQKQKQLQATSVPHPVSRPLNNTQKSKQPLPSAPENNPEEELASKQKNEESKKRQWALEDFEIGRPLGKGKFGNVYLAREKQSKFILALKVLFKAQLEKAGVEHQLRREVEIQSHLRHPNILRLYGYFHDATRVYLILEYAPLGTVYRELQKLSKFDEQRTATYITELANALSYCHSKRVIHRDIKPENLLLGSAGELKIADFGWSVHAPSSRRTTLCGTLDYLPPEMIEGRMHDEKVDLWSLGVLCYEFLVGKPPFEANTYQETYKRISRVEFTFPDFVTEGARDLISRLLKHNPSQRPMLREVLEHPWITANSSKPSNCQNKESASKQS
Active and inactive are the calls of the source.

Guide cases for Kd, answers given:
**Query** Sample `Cn1cnc2c(F)c(Nc3ccc(Br)cc3F)c(C(=O)NOCCO)cc21` — what was its Kd?
**Result** > 30 µM (inactive)

**Query** Query (compound): `COc1cc2ncnc(Oc3cccc(NC(=O)Nc4cc(C(C)(C)C(F)(F)F)on4)c3)c2cc1OC` ; field requested: Kd
**Result** > 30 µM (inactive)

***
**Query** Consider the compound shown here: O=C1NC(=O)[C@@H](c2cn3c4c(cccc24)CCC3)[C@@H]1c1c[nH]c2ccccc12 [TIVANTINIB] What is its recorded Kd?
**Result** > 30 µM (inactive)

###

# tested_on: NUAK family SNF1-like kinase 2 (Homo sapiens, UniProt Q9H093)
# Sequence (Q9H093 whole entry): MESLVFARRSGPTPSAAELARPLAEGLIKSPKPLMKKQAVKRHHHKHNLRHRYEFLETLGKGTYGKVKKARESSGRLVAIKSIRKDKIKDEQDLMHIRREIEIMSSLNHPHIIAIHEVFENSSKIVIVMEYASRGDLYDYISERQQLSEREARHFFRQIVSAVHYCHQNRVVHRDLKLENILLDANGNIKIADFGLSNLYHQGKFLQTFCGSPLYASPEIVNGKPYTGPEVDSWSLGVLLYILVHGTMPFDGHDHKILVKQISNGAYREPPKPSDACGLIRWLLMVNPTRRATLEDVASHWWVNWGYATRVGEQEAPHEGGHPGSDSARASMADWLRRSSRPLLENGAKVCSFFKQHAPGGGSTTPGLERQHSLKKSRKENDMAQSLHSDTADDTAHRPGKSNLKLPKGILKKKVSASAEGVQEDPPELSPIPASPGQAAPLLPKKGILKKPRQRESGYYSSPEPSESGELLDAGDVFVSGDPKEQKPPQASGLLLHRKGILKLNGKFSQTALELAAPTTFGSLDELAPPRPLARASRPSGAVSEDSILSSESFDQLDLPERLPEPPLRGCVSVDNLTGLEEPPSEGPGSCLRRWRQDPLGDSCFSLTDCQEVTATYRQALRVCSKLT
Active and inactive are the calls of the source.
Log the outcome using a class from True (active), False (inactive)

// known answers, use as guide
**Query** Hi, do you know how `CCn1c(C(=O)N(C2CC2)C2CC2)cc2c3c(ncn3C)c(Nc3cc(C)n(C)n3)nc21` came out in this test?
**Result** False

**Query** Which result was noted for this molecule in the test: `CC(C)(C)c1nc(-c2cccc(NS(=O)(=O)c3c(F)cccc3F)c2F)c(-c2ccnc(N)n2)s1`
**Result** False

**Query** Field: outcome | Entry: `Cc1cc(Nc2ncc(Cl)c(Nc3ccccc3S(=O)(=O)C(C)C)n2)c(OC(C)C)cc1C1CCNCC1`
**Result** False

**Query** Field: outcome | Entry: `Cc1nc(NC(=O)N2CCC[C@H]2C(N)=O)sc1-c1ccnc(C(C)(C)C(F)(F)F)c1`
**Result** False

**Query** Any idea what this test logged for `CNC(=O)c1nn(C)c2c1C(C)(C)Cc1cnc(Nc3ccc(N4CCN(C)CC4)cc3)nc1-2` ?
**Result** False

--- query ---
**Query** Returns: the outcome recorded for O=c1[nH]ccc2cc(OC3CCNCC3)ccc12 [SAR-407899 FREE BASE] in this assay.
**Result** False
